- test-protocol: Plasma and tissue distribution in SD rats
- Assay type: in vivo
- condition-details: female, SD, rat, plasma, F SD rat, Plasma; read-out: AUClast
experimental-readout: AUC(0-t) (ng·h/mL)
Numeric only. Scale: ng·h/mL

Prompt: What measured AUC(0-t) goes with C[C@@H](c1ccc(Nc2cc(Nc3ncc(F)cc3S(C)(=O)=O)ncn2)nc1)N1CC2(COC2)C1 [Compound 2] ?
Completion: 4120

---

- test-protocol: Plasma and tissue distribution in SD rats
- Format: in vivo
- condition-details: female, Sprague-Dawley (SD), rat, heart, F SD rat, Heart; read-out: AUClast
experimental-readout: AUC(0-t) (ng·h/mL)
Give the quantity in ng·h/mL, number only.

Prompt: // lookup AUC(0-t) for "C[C@@H](c1ccc(Nc2cc(Nc3ncc(F)cc3S(C)(=O)=O)ncn2)nc1)N1CC2(COC2)C1"
Completion: 8990

---

- test-protocol: Plasma and tissue distribution in SD rats
- Format: in vivo
- condition-details: Sprague-Dawley, epididymis and testis; male SD rat, PO 10 mg/kg, Epididymis & Testis
experimental-readout: Cmax (ng/g)
# number only, unit ng/g dropped from output

Prompt: For the molecule shown here, "C[C@@H](c1ccc(Nc2cc(Nc3ncccc3S(C)(=O)=O)ncn2)nc1)N1CC2(COC2)C1" , give the reported Cmax.
Completion: 350

---

- test-protocol: Plasma and tissue distribution in SD rats
- Type: in vivo
- condition-details: female SD rat, PO 10 mg/kg, Small intestine
experimental-readout: Tmax (min)
Provide only the numeric value, understood in min.

Prompt: # input compound: "C[C@@H](c1ccc(Nc2cc(Nc3ncccc3S(C)(=O)=O)ncn2)nc1)N1CC2(COC2)C1" ; wanted: its Tmax
Completion: 30

---

Kp at 12 h: recorded values
- test-protocol: Mouse colon distribution
- Format: in vivo
- condition-details: colon / plasma, PO 10 mg/kg, read-out: Colon/Plasma Ratio at 12 h
// no unit string in output, number only

{"molecule": "C[C@@H](c1ccc(Nc2cc(Nc3ncc(F)cc3S(C)(=O)=O)ncn2)nc1)N1CC2(COC2)C1 [Compound 2]", "Kp at 12 h": 24}

Continue with the molecule presented below.
Prompt: # input molecule: C[C@@H](c1ccc(Nc2cc(Nc3ncccc3S(C)(=O)=O)ncn2)nc1)N1CC2(COC2)C1 [Compound 1] ; wanted: its Kp at 12 h
Completion: 50

---

- test-protocol: Plasma and tissue distribution in SD rats
- Format: in vivo
- condition-details: male, Sprague-Dawley; M SD rat, Bladder
experimental-readout: Cmax (ng/mL)
Give the value, in units of ng/mL, as a plain number.

Prompt: Sample C[C@@H](c1ccc(Nc2cc(Nc3ncc(F)cc3S(C)(=O)=O)ncn2)nc1)N1CC2(COC2)C1 [Compound 2] — what was its Cmax?
Completion: 6820

---

- test-protocol: Plasma and tissue distribution in SD rats
- Format: in vivo
- condition-details: female, SD, rat, liver, po, 10 mg/kg, female SD rat, PO 10 mg/kg, Liver; Tissue AUC0-last/Plasma AUC0-last; read-out: AUC Ratio
experimental-readout: Kp
// return a plain number; no unit text

Prompt: Consider the compound shown here: "C[C@@H](c1ccc(Nc2cc(Nc3ncccc3S(C)(=O)=O)ncn2)nc1)N1CC2(COC2)C1" What is its recorded Kp?
Completion: 8.67

---

- test-protocol: Plasma and tissue distribution in SD rats
- Assay type: in vivo
- condition-details: male SD rat, PO 10 mg/kg, Liver
experimental-readout: half-life (h)
Could you give me the number in h? Just the number is fine.

Prompt: State the recorded half-life for this entry: C[C@@H](c1ccc(Nc2cc(Nc3ncccc3S(C)(=O)=O)ncn2)nc1)N1CC2(COC2)C1 [Compound 1]
Completion: 3.87
